Test system: velvetleaf
Test: Test B pre/postemergence velvetleaf
Assay type: in vivo, Abutilon theophrasti
Conditions: Preemergence, Rate 500 g/ha; scale of 0 to 10 where 0 is no effect and 10 is complete control
observedProperty: Plant response rating, Velvetleaf
Enter a number only.

Look over these answered cases.
molecule	Plant response rating, Velvetleaf
COC(=O)C(CCO)n1c(=O)on(C(=O)N(c2ccccc2)C(C)C)c1=O (stereo not drawn)	2
COCCOCn1c(=O)on(C(=O)N(c2ccc(F)cc2)C(C)C)c1=O [Compound 258]	7
CC(=O)N(C)CCn1c(=O)on(C(=O)N(c2ccc(F)cc2)C(C)C)c1=O	6
COCCOCn1c(=O)on(C(=O)N(c2ccc(F)cc2)C(C)C)c1=O [Compound 220]	8
CC(C)N(C(=O)n1oc(=O)n(CCC2CCCCC2)c1=O)c1ccc(F)cc1	0

// below: Plant response rating, Velvetleaf requested for another molecule
Check the records and state Plant response rating, Velvetleaf for CC(C)N(C(=O)n1oc(=O)n(CCCC#N)c1=O)c1ccccc1
10
